Parameter KT₅₀: see the listing below.
# Test system: Musca domestica (adult females)
# method: Musca domestica knockdown test
# Type: in vivo
# run-conditions: 1 cm3 of 30 ppm solution in acetone, Kearns and March chamber, 20 adult females, observed over 10 minutes; average of 2 replicates (* single replicate, ** average of 7 tests)

compound: CC(C)=CC1C(C(=O)OCN2C(=O)C3=C(CCCC3)C2=O)C1(C)C (stereo not drawn) [Tetramethrin, reference compound]
endpoint-value: 4.0** mins

compound: CC1(C)C(C=C(Cl)C(F)(F)F)C1C(=O)OCc1c(F)c(F)c(COC=O)c(F)c1F (racemic)
endpoint-value: 10* mins

*Q* // fetch Musca domestica (adult females) KT₅₀ for C#Cc1c(F)c(F)c(COC(=O)C2C(C=C(Cl)C(F)(F)F)C2(C)C)c(F)c1F (racemic)
*A* 4.6* mins
